Target: T1, Duck egg lysozyme (DEL), D65N + N103D double mutant of the DEL-II isoform (Anas platyrhynchos, DEL-II double mutant, strain)
T1 construct: duck egg lysozyme, DEL-II isoform, D65N + N103D double mutant; differs from HEL3X at 25 amino acids; source: Pichia pastoris, secreted, purified from culture supernatant (ion exchange)
T1 chain: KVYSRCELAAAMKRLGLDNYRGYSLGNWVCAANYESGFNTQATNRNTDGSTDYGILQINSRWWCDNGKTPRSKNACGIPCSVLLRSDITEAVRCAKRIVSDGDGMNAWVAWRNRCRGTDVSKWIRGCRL
Experiment: BLI; BLItz (ForteBio); biotinylated Hy10 Fab variant immobilised on streptavidin biosensors (rehydrated in PBS with 0.1% wt/vol BSA); soluble monomeric lysozyme antigen as analyte at a range of concentrations; global fit, 1:1 Fab-lysozyme interaction
Conditions: both partners purified
Provide the reported Ka of each item.
Give bare numbers, in M⁻¹.

In the examples that follow, each entry is paired with its recorded Ka.
Hy10 Fab Y33H (Fab, V domains shown, as the heavy chain of Dm5 with the stated changes; as the light chain of Dm5; also called Hy10-Y33H; source: Expi293, transient (pCEP4), purified (Talon resin, gel filtration)) VH: DVQLQESGPSLVKPSQTLSLTCSVTGDSITSDHWSWIRKFPGNRLEYMGYVSYSGSTYYNPSLKSRISITRDTSKNQYYLDLNSVTTEDTATYYCANWDGDYWGQGTLVTVSA VL: DIVLTQSPATLSVTPGNSVSLSCRASQSIGNNLHWYQQKSHESPRLLIKYASQSISGIPSRFSGSGSGTDFTLSINSVETEDFGMYFCQQSNSWPYTFGGGTKLEIK :: 1.68e+06
Hy10 Fab I29F (Fab, V domains shown, as the heavy chain of Dm5 with the stated changes; as the light chain of Dm5; source: Expi293, transient (pCEP4), purified (Talon resin, gel filtration)) VH: DVQLQESGPSLVKPSQTLSLTCSVTGDSFTSDYWSWIRKFPGNRLEYMGYVSYSGSTYYNPSLKSRISITRDTSKNQYYLDLNSVTTEDTATYYCANWDGDYWGQGTLVTVSA VL: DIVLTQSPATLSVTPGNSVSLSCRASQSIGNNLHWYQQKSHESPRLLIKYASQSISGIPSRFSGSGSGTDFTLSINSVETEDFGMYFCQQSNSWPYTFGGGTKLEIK :: 6.37e+07
Hy10 Fab S52T/Y53F (Fab, V domains shown, as the heavy chain of Dm5 with the stated changes; as the light chain of Dm5; source: Expi293, transient (pCEP4), purified (Talon resin, gel filtration)) VH: DVQLQESGPSLVKPSQTLSLTCSVTGDSITSDYWSWIRKFPGNRLEYMGYVTFSGSTYYNPSLKSRISITRDTSKNQYYLDLNSVTTEDTATYYCANWDGDYWGQGTLVTVSA VL: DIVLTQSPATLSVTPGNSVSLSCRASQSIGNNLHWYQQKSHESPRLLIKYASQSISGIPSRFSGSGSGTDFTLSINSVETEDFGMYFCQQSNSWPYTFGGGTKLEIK :: 2.81e+08
Hy10 Fab I29F/S52T/Y58F (Fab, V domains shown, as the heavy chain of Dm5 with the stated changes; as the light chain of Dm5; source: Expi293, transient (pCEP4), purified (Talon resin, gel filtration)) VH: DVQLQESGPSLVKPSQTLSLTCSVTGDSFTSDYWSWIRKFPGNRLEYMGYVTYSGSTFYNPSLKSRISITRDTSKNQYYLDLNSVTTEDTATYYCANWDGDYWGQGTLVTVSA VL: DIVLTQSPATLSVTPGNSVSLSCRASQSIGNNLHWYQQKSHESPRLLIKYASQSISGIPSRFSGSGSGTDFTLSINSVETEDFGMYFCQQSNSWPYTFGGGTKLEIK :: 5.92e+08

Turning to the following binder.
Quote Ka reported for Hy10 Fab S52T/Y58F (Fab, V domains shown, as the heavy chain of Dm5 with the stated changes; as the light chain of Dm5; source: Expi293, transient (pCEP4), purified (Talon resin, gel filtration)) VH: DVQLQESGPSLVKPSQTLSLTCSVTGDSITSDYWSWIRKFPGNRLEYMGYVTYSGSTFYNPSLKSRISITRDTSKNQYYLDLNSVTTEDTATYYCANWDGDYWGQGTLVTVSA VL: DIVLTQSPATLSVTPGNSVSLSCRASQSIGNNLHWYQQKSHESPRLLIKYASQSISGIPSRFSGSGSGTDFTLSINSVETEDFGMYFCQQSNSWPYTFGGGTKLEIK please.
3.8e+08
